Target: UniProt:P08908
Assay: Displacement of [3H]-8-OH-DPAT from recombinant human 5HT1A receptor expressed in CHO cell membranes measured after 60 mins by microbeta scintillation counting analysis
Observed property: Ki (nM)
Write the number in nM without appending the unit.

Reported Ki, compound O=c1c(-c2ccc(F)cc2)c2ccccn2c(=O)n1CCCCN1CCCC(c2c[nH]c3ccc(F)cc23)C1 (stereo not drawn) : ____
147

// repeat for COc1ccc2[nH]cc(C3CCCN(CCCCn4c(=O)c(-c5ccccc5OC)c5ccccn5c4=O)C3)c2c1 (stereo not drawn) and report
69

// repeat for O=c1c(-c2ccccc2Cl)c2ccccn2c(=O)n1CCCCN1CCCC(c2c[nH]c3ccc(F)cc23)C1 (stereo not drawn) and report
378

// repeat for COc1ccc2[nH]cc(C3CCCN(CCCCn4c(=O)c(-c5ccc(Cl)cc5)c5ccccn5c4=O)C3)c2c1 (stereo not drawn) and report
257

// repeat for COc1ccc(-c2c(=O)n(CCCCN3CCCC(c4c[nH]c5ccc(F)cc45)C3)c(=O)n3ccccc23)cc1 (stereo not drawn) and report
140

// repeat for COc1ccc(-c2c(=O)n(CCCCN3CCCC(c4c[nH]c5ccccc45)C3)c(=O)n3ccccc23)cc1 (stereo not drawn) and report
42

// repeat for COc1ccccc1-c1c(=O)n(CCCCN2CCCC(c3c[nH]c4ccccc34)C2)c(=O)n2ccccc12 (stereo not drawn) and report
132

// repeat for COc1ccc2[nH]cc(C3CCCN(CCCCn4c(=O)c(-c5ccccc5)c5ccccn5c4=O)C3)c2c1 (stereo not drawn) and report
261

###

Experiment: Half life in human liver microsomes at 1 uM by LC-MS analysis
Assay type: ADME, Microsome
Observed property: half-life at 1 µM
The reply should read as a number followed by its unit.

Reported half-life at 1 µM, molecule O=c1c(-c2ccccc2)c2ccccn2c(=O)n1CCCCN1CCCC(c2c[nH]c3ccccc23)C1 (centres undefined) : ____
6.12 min

// repeat for COc1ccc(-c2c(=O)n(CCCCN3CCCC(c4c[nH]c5ccc(OC)cc45)C3)c(=O)n3ccccc23)cc1 (centres undefined) and report
3.31 min

// repeat for COc1ccc(-c2c(=O)n(CCCCN3CCCC(c4c[nH]c5ccccc45)C3)c(=O)n3ccccc23)cc1 (centres undefined) and report
7.4 min

// repeat for O=c1c(-c2ccc(F)cc2)c2ccccn2c(=O)n1CCCCN1CCCC(c2c[nH]c3ccccc23)C1 (centres undefined) and report
5.53 min

###

Biological target: D(2) dopamine receptor (Homo sapiens, UniProt P14416)
Sequence (P14416 whole entry): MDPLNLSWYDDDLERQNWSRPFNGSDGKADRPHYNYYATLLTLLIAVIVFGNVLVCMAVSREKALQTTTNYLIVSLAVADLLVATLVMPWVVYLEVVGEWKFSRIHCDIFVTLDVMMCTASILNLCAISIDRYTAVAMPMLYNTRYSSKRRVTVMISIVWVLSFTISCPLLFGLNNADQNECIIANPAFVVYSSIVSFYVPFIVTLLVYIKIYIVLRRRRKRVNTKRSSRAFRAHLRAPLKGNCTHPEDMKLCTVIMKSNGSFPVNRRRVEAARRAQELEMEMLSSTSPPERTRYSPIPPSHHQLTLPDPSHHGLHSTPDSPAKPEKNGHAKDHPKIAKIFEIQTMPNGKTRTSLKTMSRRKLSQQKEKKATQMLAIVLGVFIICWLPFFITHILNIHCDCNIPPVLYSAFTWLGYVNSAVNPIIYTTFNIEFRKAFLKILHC
Assay: Displacement of [3H]-raclopride from recombinant human D2 receptor expressed in HEK293 cells measured after 1 hr by microbeta scintillation counting analysis
Assay type: cell-based
Observed property: pKi
Scale: pKi equals -log10([C]), with [C] in mol/L.

Reported pKi, molecule COc1ccc(-c2c(=O)n(CCCCN3CCCC(c4c[nH]c5ccc(OC)cc45)C3)c(=O)n3ccccc23)cc1 (centres undefined) : ____
4.95

// repeat for O=c1c(-c2ccccc2)c2ccccn2c(=O)n1CCCCN1CCCC(c2c[nH]c3ccccc23)C1 (centres undefined) and report
4.75

// repeat for O=c1c(-c2ccc(F)cc2)c2ccccn2c(=O)n1CCCCN1CCCC(c2c[nH]c3ccccc23)C1 (centres undefined) and report
6.02

// repeat for COc1ccc(-c2c(=O)n(CCCCN3CCCC(c4c[nH]c5ccccc45)C3)c(=O)n3ccccc23)cc1 (centres undefined) and report
5.95

###

For each record, write down the corresponding Ki.
Biological target: UniProt P28223
Sequence (P28223 whole entry): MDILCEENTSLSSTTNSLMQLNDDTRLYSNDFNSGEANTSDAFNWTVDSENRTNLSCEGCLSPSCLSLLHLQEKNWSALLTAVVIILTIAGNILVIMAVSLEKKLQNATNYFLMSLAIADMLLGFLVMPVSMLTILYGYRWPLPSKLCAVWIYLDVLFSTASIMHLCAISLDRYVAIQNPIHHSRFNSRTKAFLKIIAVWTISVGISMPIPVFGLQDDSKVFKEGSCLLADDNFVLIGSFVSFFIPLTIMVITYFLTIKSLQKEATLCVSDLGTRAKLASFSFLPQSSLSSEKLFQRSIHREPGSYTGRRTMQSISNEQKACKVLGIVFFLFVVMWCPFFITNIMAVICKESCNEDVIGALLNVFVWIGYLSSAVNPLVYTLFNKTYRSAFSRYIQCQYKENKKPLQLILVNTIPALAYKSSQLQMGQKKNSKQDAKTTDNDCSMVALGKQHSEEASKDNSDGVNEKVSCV
Experiment: Displacement of [3H]-ketanserin from recombinant human 5HT2A receptor expressed in HEK293 cells measured after 1.5 hrs by microbeta scintillation counting analysis
Write the number in nM without appending the unit.

Reported Ki, compound O=c1c(-c2ccccc2)c2ccccn2c(=O)n1CCCCN1CCCC(c2c[nH]c3ccccc23)C1 (centres undefined) : ____
433

// repeat for COc1ccc(-c2c(=O)n(CCCCN3CCCC(c4c[nH]c5ccccc45)C3)c(=O)n3ccccc23)cc1 (centres undefined) and report
21

// repeat for O=c1c(-c2ccc(F)cc2)c2ccccn2c(=O)n1CCCCN1CCCC(c2c[nH]c3ccccc23)C1 (centres undefined) and report
435

// repeat for COc1ccc(-c2c(=O)n(CCCCN3CCCC(c4c[nH]c5ccc(OC)cc45)C3)c(=O)n3ccccc23)cc1 (centres undefined) and report
314

###

Test system: Mus musculus
Experiment: Induction of hypothermia in CD-1 mouse assessed as change in body temperature at 20 mg/kg, ip measured after 120 mins by thermometric method
Format: functional, organism-based
Observed property: deltaT

Reported deltaT, molecule COc1ccc(-c2c(=O)n(CCCCN3CCCC(c4c[nH]c5ccc(OC)cc45)C3)c(=O)n3ccccc23)cc1 (centres undefined) : ____
0 °C

// repeat for O=c1c(-c2ccc(F)cc2)c2ccccn2c(=O)n1CCCCN1CCCC(c2c[nH]c3ccccc23)C1 (centres undefined) and report
0.1 °C

// repeat for O=c1c(-c2ccccc2)c2ccccn2c(=O)n1CCCCN1CCCC(c2c[nH]c3ccccc23)C1 (centres undefined) and report
0.2 °C

// repeat for COc1ccc(-c2c(=O)n(CCCCN3CCCC(c4c[nH]c5ccccc45)C3)c(=O)n3ccccc23)cc1 (centres undefined) and report
0.3 °C

###

For each record, write down the corresponding Ki.
Biological target: 5-hydroxytryptamine receptor 1A (Homo sapiens, UniProt P08908)
Sequence (P08908 whole entry): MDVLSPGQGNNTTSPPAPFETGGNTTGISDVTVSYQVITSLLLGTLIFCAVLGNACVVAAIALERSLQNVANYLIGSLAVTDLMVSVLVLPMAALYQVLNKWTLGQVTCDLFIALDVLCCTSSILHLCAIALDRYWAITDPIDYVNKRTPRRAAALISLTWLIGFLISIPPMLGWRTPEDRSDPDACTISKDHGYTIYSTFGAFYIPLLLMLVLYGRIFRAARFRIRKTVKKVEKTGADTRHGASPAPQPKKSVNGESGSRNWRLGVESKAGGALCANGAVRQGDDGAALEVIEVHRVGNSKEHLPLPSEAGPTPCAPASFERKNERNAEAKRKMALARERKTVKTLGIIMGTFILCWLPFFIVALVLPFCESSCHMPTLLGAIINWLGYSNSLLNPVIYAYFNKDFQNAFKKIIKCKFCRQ
Assay: Displacement of [3H]-8-OH-DPAT from recombinant human 5HT1A receptor expressed in CHO cell membranes measured after 60 mins by microbeta scintillation counting analysis
Write the number in nM without appending the unit.

Reported Ki, compound O=c1c(-c2ccc(Cl)cc2)c2ccccn2c(=O)n1CCCCN1CCCC(c2c[nH]c3ccccc23)C1 (centres undefined) : ____
294

// repeat for COc1ccccc1-c1c(=O)n(CCCCN2CCCC(c3c[nH]c4ccc(F)cc34)C2)c(=O)n2ccccc12 (centres undefined) and report
80

// repeat for COc1ccc2[nH]cc(C3CCCN(CCCCn4c(=O)c(-c5ccc(F)cc5)c5ccccn5c4=O)C3)c2c1 (centres undefined) and report
281

// repeat for O=c1c(-c2ccccc2F)c2ccccn2c(=O)n1CCCCN1CCCC(c2c[nH]c3ccccc23)C1 (centres undefined) and report
53

###

For each record, write down the corresponding Ki.
Molecular target: 5-hydroxytryptamine receptor 1A (Homo sapiens, UniProt P08908)
Experiment: Displacement of [3H]-8-OH-DPAT from recombinant human 5HT1A receptor expressed in CHO cell membranes measured after 60 mins by microbeta scintillation counting analysis
The reply should read as a number followed by its unit.

Reported Ki, molecule Cc1ccccc1-c1c(=O)n(CCCCN2CCCC(c3c[nH]c4ccccc34)C2)c(=O)n2ccccc12 (centres undefined) : ____
0.102 µM

// repeat for O=c1c(-c2ccccc2Cl)c2ccccn2c(=O)n1CCCCN1CCCC(c2c[nH]c3ccccc23)C1 (centres undefined) and report
0.05 µM

// repeat for O=c1c(-c2ccc(Cl)cc2)c2ccccn2c(=O)n1CCCCN1CCCC(c2c[nH]c3ccc(F)cc23)C1 (centres undefined) and report
0.155 µM

// repeat for O=c1c(-c2ccc(F)cc2)c2ccccn2c(=O)n1CCCCN1CCCC(c2c[nH]c3ccccc23)C1 (centres undefined) and report
0.046 µM

###

For each record, write down the corresponding pKi.
Biological target: 5-hydroxytryptamine receptor 6 (Homo sapiens, UniProt P50406)
Sequence (P50406 whole entry): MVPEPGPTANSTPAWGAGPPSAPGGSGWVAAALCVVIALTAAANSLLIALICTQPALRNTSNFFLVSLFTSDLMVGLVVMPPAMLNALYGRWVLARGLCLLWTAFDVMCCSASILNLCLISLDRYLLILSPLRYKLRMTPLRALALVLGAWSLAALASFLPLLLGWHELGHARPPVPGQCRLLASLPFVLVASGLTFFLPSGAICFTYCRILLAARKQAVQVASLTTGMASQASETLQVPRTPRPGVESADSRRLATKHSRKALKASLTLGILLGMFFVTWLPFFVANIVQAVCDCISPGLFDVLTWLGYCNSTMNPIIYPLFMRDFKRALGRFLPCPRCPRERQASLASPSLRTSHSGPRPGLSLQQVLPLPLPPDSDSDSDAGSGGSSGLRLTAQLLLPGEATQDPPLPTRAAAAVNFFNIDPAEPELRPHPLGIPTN
Assay: Displacement of [3H]-LSD from recombinant human 5HT6 receptor expressed in HEK293 cells measured after 1 hr by microbeta scintillation counting analysis
Scale: pKi equals -log10([C]), with [C] in mol/L.

Reported pKi, molecule COc1ccc(-c2c(=O)n(CCCCN3CCCC(c4c[nH]c5ccc(OC)cc45)C3)c(=O)n3ccccc23)cc1 (centres undefined) : ____
6.16

// repeat for COc1ccc(-c2c(=O)n(CCCCN3CCCC(c4c[nH]c5ccccc45)C3)c(=O)n3ccccc23)cc1 (centres undefined) and report
5.77

// repeat for O=c1c(-c2ccc(F)cc2)c2ccccn2c(=O)n1CCCCN1CCCC(c2c[nH]c3ccccc23)C1 (centres undefined) and report
6.16

// repeat for O=c1c(-c2ccccc2)c2ccccn2c(=O)n1CCCCN1CCCC(c2c[nH]c3ccccc23)C1 (centres undefined) and report
6.36

###

Molecular target: 5-hydroxytryptamine receptor 1A (Homo sapiens)
Test: Displacement of [3H]-8-OH-DPAT from recombinant human 5HT1A receptor expressed in CHO cell membranes measured after 60 mins by microbeta scintillation counting analysis
Observed property: pKi
Scale: pKi equals -log10([C]), with [C] in mol/L.

Reported pKi, compound COc1ccc(-c2c(=O)n(CCCCN3CCCC(c4c[nH]c5ccc(OC)cc45)C3)c(=O)n3ccccc23)cc1 (stereo not drawn) : ____
7.21

// repeat for Cc1ccc(-c2c(=O)n(CCCCN3CCCC(c4c[nH]c5ccccc45)C3)c(=O)n3ccccc23)cc1 (stereo not drawn) and report
7.20

// repeat for Cc1ccccc1-c1c(=O)n(CCCCN2CCCC(c3c[nH]c4ccc(F)cc34)C2)c(=O)n2ccccc12 (stereo not drawn) and report
6.42
